Test system: CAR cells
experiment.summary: MTT assay, antiproliferation on cisplatin-resistant head and neck squamous carcinoma (CAR) cells
Type: cell-based, human
condition.notes: Homo sapiens; CAR cells, MTT, 48 hours; read-out: CAR (IC50 (μM)) 48 hours
reported.metric: IC50 (µM)

Entry under review: CC(=O)Oc1cc(/C=C/c2ccc(OC(=O)C(C)(CO)CO)cc2)cc(OC(C)=O)c1 [Compound 9-4] . Reported IC50?
103

Then this molecule: CC(CO)(CO)C(=O)Oc1ccc(/C=C/c2cc(O)cc(O)c2)cc1 [Compound 3-5]
169

Moving on to COc1cc(O)cc(/C=C/c2ccc(OC(=O)C(C)(CO)CO)cc2)c1 [Compound 11-3]
67.3

Would you kindly repeat that for COc1ccc(/C=C/c2cc(OC(=O)C(C)(CO)CO)cc(OC(=O)C(C)(CO)CO)c2)cc1 [Compound 13-3] ?
73.9

// query: CC(CO)(CO)C(=O)Oc1cc(/C=C/c2ccc(O)cc2)cc(OC(=O)C(C)(CO)CO)c1 [Compound 6-3]
91.4

1: COc1ccc(/C=C/c2cc(OC)cc(OC(=O)C(C)(CO)CO)c2)cc1 [Compound 7-3]
2: CC(=O)Oc1cc(/C=C/c2ccc(OC(=O)C(C)(CO)CO)cc2)cc(OC(=O)C(C)(CO)CO)c1 [Compound 10-4]
Of 1 and 2 , which shows the smaller IC50 value? Mark your selection by writing its label.
1

* * *

Tested on: Hep3B cells
experiment.summary: MTT assay, antiproliferation on Hep3B cells
Assay type: cell-based
condition.notes: Homo sapiens; Hep3B cells, MTT, 72 hours; read-out: Hep 3B (IC50 (μM)) 72 hours
reported.metric: IC50 (µM)

Example entries and their recorded answers appear below.
Name the reported IC50 value associated with the compound `COc1cc(/C=C/c2ccc(OC(=O)C(C)(CO)CO)cc2)cc(OC(C)=O)c1`
36.8

Can you check `CC(CO)(CO)C(=O)Oc1cc(O)cc(/C=C/c2ccc(O)cc2)c1` next?
68.9

Please answer likewise for `COc1cc(/C=C/c2ccc(OC(=O)C(C)(CO)CO)cc2)cc(OC(=O)C(C)(CO)CO)c1`
66.5

`COc1cc(/C=C/c2ccc(OC(=O)C(C)(CO)CO)cc2)cc(OC)c1` ?
43.8

Entry Oc1ccc(/C=C/c2cc(O)cc(O)c2)cc1 [Resveratrol, 3,5,4′-trihydroxy-trans-stilbene, reference compound] please
51.6

# iterate: `COc1ccc(/C=C/c2cc(OC(=O)C(C)(CO)CO)cc(OC(=O)C(C)(CO)CO)c2)cc1`
39.1

a: COc1cc(/C=C/c2ccc(O)cc2)cc(OC)c1 [Pterostilbene, reference compound]
b: COc1cc(O)cc(/C=C/c2ccc(OC(=O)C(C)(CO)CO)cc2)c1
Of a and b , which one carries the higher reported IC50? Please indicate the selected item by its label.
a
(a: 48.9 µM, b: 33.2 µM)

* * *

Test system: CAR cells
experiment.summary: MTT assay, antiproliferation on cisplatin-resistant head and neck squamous carcinoma (CAR) cells
Assay type: cell-based, human
condition.notes: Homo sapiens; CAR cells, MTT, 72 hours, Example 18 text; read-out: IC50 after 72 hours of treatment (FIG. 1)
reported.metric: pIC50
pIC50 is a log-scale quantity: -log10 of the concentration expressed in molar.

// map COc1cc(/C=C/c2ccc(OC(=O)C(C)(CO)CO)cc2)cc(OC)c1 [Compound 2-4] to recorded pIC50 (system: CAR cells)
4.30

Values were extracted from patent US9266813B2.
